Recorded values, source paper PMC11915032.

experiment_notes: logD by shake flask method
Assay type: physicochemical
assay_conditions: n-octanol/PBS
metric: logD
Give your answer as a number; write no unit.

For record O=C(N1CC(F)C1)N1CCc2c(-c3cnco3)cc(C(F)(F)F)cc21 [Compound 5] the listed logD is 3.16

###

These compounds were tested on CYP46A1 (Homo sapiens, UniProt Q9Y6A2); IC50 is the recorded read-out.
Sequence (Q9Y6A2 whole entry, species assumed): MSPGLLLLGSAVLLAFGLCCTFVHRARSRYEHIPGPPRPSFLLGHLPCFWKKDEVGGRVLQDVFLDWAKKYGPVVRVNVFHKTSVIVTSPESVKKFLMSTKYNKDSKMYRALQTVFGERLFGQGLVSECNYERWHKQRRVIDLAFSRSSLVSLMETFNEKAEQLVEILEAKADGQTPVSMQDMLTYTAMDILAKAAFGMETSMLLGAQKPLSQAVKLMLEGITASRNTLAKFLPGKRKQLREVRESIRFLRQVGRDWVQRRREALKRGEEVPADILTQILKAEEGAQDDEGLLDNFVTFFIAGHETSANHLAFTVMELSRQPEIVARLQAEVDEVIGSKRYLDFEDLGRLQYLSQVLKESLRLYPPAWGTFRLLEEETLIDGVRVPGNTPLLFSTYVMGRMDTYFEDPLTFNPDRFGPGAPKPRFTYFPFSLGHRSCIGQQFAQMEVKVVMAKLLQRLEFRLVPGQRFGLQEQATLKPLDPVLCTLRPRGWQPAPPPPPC
I only need the number, in nM, no unit after it.

compound	IC50 [nM]
O=C(N1CC([18F])C1)N1CCc2c(-c3cnco3)cc(C(F)(F)F)cc21 [[^18F]5]	0.11

Now turn to the next compound.
The reported IC50 of the compound `O=C(N1CC(F)C1)N1CCc2c(-c3cnco3)cc(C(F)(F)F)cc21` was 0.11
